Please respond with reported IC50 for every item in the list.
assay.target: recombinant human DHODH (Homo sapiens, UniProt Q02127)
Construct: provided by Prof; M. Löffler, Marburg, Germany (gift, not purchased)
Sequence (Q02127 whole entry): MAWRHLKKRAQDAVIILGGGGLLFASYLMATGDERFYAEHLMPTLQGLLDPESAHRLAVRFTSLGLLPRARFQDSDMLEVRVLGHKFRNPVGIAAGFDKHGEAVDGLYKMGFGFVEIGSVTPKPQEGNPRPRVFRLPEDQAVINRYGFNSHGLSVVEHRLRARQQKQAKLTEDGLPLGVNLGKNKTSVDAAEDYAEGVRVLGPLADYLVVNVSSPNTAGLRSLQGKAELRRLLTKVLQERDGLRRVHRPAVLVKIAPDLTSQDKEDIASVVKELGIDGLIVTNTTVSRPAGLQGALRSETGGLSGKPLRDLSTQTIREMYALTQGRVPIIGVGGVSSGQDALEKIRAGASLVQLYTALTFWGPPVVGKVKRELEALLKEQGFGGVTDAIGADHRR
experimental.protocol: Inhibition assay of DHODH activity (human enzyme)
Format: biochemical
test.context: recombinant human DHODH, class symbols (in nM); read-out: human IC50-Value

Consider the reported IC50 for these molecules:
>>> recorded_result("N#Cc1cccc(-c2ccc(NC(=O)C3=C(C(=O)O)CCC3)cc2Cl)c1")
"< 800 nM"
>>> recorded_result("COc1ccc(-c2ccc(NC(=O)C3=C(C(=O)O)CCC3)cc2Cl)cc1")
"< 800 nM"

Lab note: each molecule below needs its IC50 filled in.
1. O=C(O)C1=C(C(=O)Nc2c(F)cc(-c3cccc(OC(F)(F)F)c3)cc2F)CCC1
2. O=C(O)C1=C(C(=O)Oc2ccc(-c3ccccc3)cc2)CCC1
3. COc1cccc(-c2ccc(NC(=O)C3=C(C(=O)O)CCC3)c(OC)c2)c1
4. CCOc1ccccc1-c1cc(F)c(NC(=O)C2=C(C(=O)O)CCC2)c(F)c1

1. < 800 nM
2. > 1500 nM
3. < 800 nM
4. < 800 nM

Lab note: each molecule below needs its IC50 filled in.
1. COc1cc(-c2ccc(NC(=O)C3=C(C(=O)O)CCC3)c(OC)c2)ccc1NC(=O)C1=C(C(=O)O)CCC1
2. O=C(O)C1=C(C(=O)Nc2ccc(-c3cccnc3)c(Cl)c2)CCC1

["> 1500 nM", "800 to 1500 nM"]

---

assay.target: DHODH (Rattus norvegicus)
Sequence (Q63707 whole entry): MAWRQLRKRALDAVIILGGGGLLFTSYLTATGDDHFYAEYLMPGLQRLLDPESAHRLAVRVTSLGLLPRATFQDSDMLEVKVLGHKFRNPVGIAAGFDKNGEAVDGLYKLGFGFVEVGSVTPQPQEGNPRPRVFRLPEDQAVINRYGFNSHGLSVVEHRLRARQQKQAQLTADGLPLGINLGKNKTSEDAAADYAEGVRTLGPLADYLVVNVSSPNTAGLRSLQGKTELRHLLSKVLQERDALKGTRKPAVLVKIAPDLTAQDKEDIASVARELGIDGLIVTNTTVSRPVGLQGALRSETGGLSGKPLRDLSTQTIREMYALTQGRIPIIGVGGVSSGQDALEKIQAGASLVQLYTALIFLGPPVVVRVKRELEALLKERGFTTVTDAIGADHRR
experimental.protocol: Inhibition assay of DHODH activity (rat enzyme, head printed 'rate')
Type: biochemical
test.context: class symbols (in nM); read-out: rate IC50-Value
Please respond with reported IC50 for every item in the list.

>>> recorded_result("CCOc1ccccc1-c1cc(F)c(NC(=O)C2=C(C(=O)O)CCC2)c(F)c1 [Compound 62]")
"< 800 nM"
>>> recorded_result("COc1ccccc1-c1ccc(NC(=O)C2=C(C(=O)O)CCC2)c(C)c1 [Compound 57]")
"800 to 1500 nM"
>>> recorded_result("O=C(O)C1=C(C(=O)Nc2ccc(-c3ccccc3Cl)cc2)CSC1 [Compound 41]")
"> 1500 nM"
>>> recorded_result("COc1ccccc1-c1ccc(NC(=O)C2=C(C(=O)O)CCC2)c(Cl)c1 [Compound 53]")
"800 to 1500 nM"
>>> recorded_result("CCOc1cccc(-c2cc(F)c(NC(=O)C3=C(C(=O)O)CCC3)c(F)c2)c1 [Compound 63]")
"< 800 nM"

Lab note: each compound below needs its IC50 filled in.
1. O=C(O)C1=C(C(=O)Nc2ccc(Oc3ccccc3)cc2)CCC1 [Compound 50]
2. O=C(O)C1=C(C(=O)Nc2ccc(OCc3ccccc3C(F)(F)F)c(Cl)c2)CCC1 [Compound 68]
3. Cc1cccc(Sc2ccc(NC(=O)C3=C(C(=O)O)CCC3)cc2)c1 [Compound 42]
4. O=C(O)C1=C(C(=O)Nc2ccc(-c3ccccc3F)cc2)CCC1 [Compound 13]

1. < 800 nM
2. > 1500 nM
3. < 800 nM
4. > 1500 nM

---

assay.target: recombinant human DHODH (Homo sapiens)
Construct: provided by Prof; M. Löffler, Marburg, Germany (gift, not purchased)
experimental.protocol: Inhibition assay of DHODH activity (human enzyme)
Type: biochemical
test.context: recombinant human DHODH, class symbols (in nM); read-out: human IC50-Value
Please respond with reported IC50 for every item in the list.

Lab note: each compound below needs its IC50 filled in.
1. O=C(O)C1=C(C(=O)Nc2c(F)cc(-c3ccccc3Cl)cc2F)CCC1
2. Cc1cc(-c2cc(F)c(NC(=O)C3=C(C(=O)O)CCC3)c(F)c2)ccc1F

["< 800 nM", "< 800 nM"]

Lab note: each compound below needs its IC50 filled in.
1. COc1cc(-c2ccccc2Cl)ccc1NC(=O)C1=C(C(=O)O)CCC1
2. CCOc1cccc(-c2cc(F)c(NC(=O)C3=C(C(=O)O)CCC3)c(F)c2)c1
3. O=C(O)C1=C(C(=O)Nc2ccc(-c3cccc(OC(F)(F)F)c3)cc2)CCC1

1: < 800 nM; 2: < 800 nM; 3: < 800 nM

Lab note: each compound below needs its IC50 filled in.
1. CCOc1cccc(-c2ccc(NC(=O)C3=C(C(=O)O)CCC3)c(F)c2)c1
2. O=C(O)C1=C(C(=O)Nc2ccc(-c3cc4ccccc4s3)cc2F)CCC1
3. COc1cc(-c2ccccc2F)ccc1NC(=O)C1=C(C(=O)O)CCC1
4. O=C(O)C1=C(C(=O)Nc2c(F)cc(-c3ccccc3F)cc2F)CCC1
5. CCOc1cccc(-c2ccc(NC(=O)C3=C(C(=O)O)CCC3)c(OC)c2)c1
6. O=C(O)C1=C(C(=O)NC2CC2c2ccccc2)CCC1 (centres unmarked)
7. O=C(O)C1=C(C(=O)Nc2cc(Br)c(OCc3cc(F)ccc3F)c(Br)c2)CCC1

["< 800 nM", "< 800 nM", "< 800 nM", "< 800 nM", "< 800 nM", "> 1500 nM", "< 800 nM"]
